Origin of the recorded values: paper PMC6582431

targetOrTestSystem: MAGL (Rattus norvegicus, UniProt Q8R431)
assay: MAGL activity in rat cerebellum cytosol
Type: biochemical
details: C inhib=100 μM in rat cerebellum cytosol; Table 5
property: MAGL (100 μM), percent of control

CN(C(=O)n1cnc(-c2cccnc2)c1)C1CCCCC1 :: 94±4% of control
CN(C(=O)n1cnc(-c2ccccc2)c1)C1CCCCC1 :: 91±3% of control
CN(C(=O)n1cnc(-c2ccccc2)c1)C1CCOCC1 :: 96±1% of control
O=C(N1CCN(Cc2ccccc2)CC1)n1cnc(-c2ccccc2)c1 :: 61±6% of control
CC1(C)COCN1C(=O)n1cnc(-c2ccccc2)c1 :: 92±3% of control
CN(C(=O)n1cnc(-c2ccccc2)c1)C1CCN(Cc2ccccc2)CC1 :: 92±8% of control

# input Observed MAGL (100 μM), percent of control on MAGL (Rattus norvegicus, UniProt Q8R431) for `CN(C(=O)n1cnc(-c2ccc[n+]([O-])c2)c1)C1CCCCC1` , please.
# output 96±4% of control

---

Give MAGL activity, percent of control for every item shown.
targetOrTestSystem: MAGL (Rattus norvegicus, UniProt Q8R431)
Sequence (Q8R431 1-303): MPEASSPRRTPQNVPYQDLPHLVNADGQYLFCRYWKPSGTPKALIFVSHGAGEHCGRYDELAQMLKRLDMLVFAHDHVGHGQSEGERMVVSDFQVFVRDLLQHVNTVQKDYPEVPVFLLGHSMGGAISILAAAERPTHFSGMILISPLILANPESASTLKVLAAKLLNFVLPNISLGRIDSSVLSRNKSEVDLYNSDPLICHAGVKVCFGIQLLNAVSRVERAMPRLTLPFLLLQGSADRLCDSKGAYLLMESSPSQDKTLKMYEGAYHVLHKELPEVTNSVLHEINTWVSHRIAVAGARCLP
assay: MAGL activity in rat cerebellum cytosol
Assay type: biochemical
details: C inhib=100 μM in rat cerebellum cytosol; Table 2

Consider the following illustrative entries.
CN(Cc1ccccc1)C(=O)n1nnc2ccccc21 :: 2±2% of control
O=C(NCc1ccccc1)n1nnc2ccccc21 :: 4±1% of control
CN(C(=O)n1nnc2ccccc21)c1ccc(F)cc1F :: 70±6% of control
Cl.O=C(N1CCN(Cc2ccccc2)CC1)n1nnc2ccccc21 :: 7±4% of control
CN(C(=O)n1nnc2ccccc21)c1ccccc1 :: 73±4% of control

# per-item lookup of MAGL activity, percent of control; items listed below
1. CC1(C)OCCN1C(=O)n1nnc2ccccc21
2. O=C(N1CCC(Cc2ccccc2)CC1)n1nnc2ccccc21
3. CN(C(=O)n1nnc2ccccc21)C1CCCCC1
4. NC(=O)c1cccc(-c2cccc(OC(=O)NC3CCCCC3)c2)c1 [Compound 2, URB597, reference compound]

# output
84±25% of control
7±5% of control
73±3% of control
87±4% of control

---

assay: CYP450 metabolic stability, mouse liver microsomes
Assay type: in vitro ADME
details: C inhib=50 μM in mouse liver microsomes, 1 h incubation
Give CYPs (50 μM), percentage remaining for every item shown.
Answers are plain numbers, in percentage remaining.

Consider the following illustrative entries.
CC1(C)COCN1C(=O)n1nnc2cc(C(N)=O)ccc21 :: 67
CC1(C)COCN1C(=O)n1nnc2ccccc21 :: 25
CC1(C)COCN1C(=O)n1nnc2ccc(-c3ccccc3)cc21 :: 73

// moving on: another record for CYPs (50 μM), percentage remaining
# input Can you share its CYPs (50 μM), percentage remaining? I mean this compound: `CC1(C)COCN1C(=O)n1nnc2ccc(Br)cc21`
# output 8

---

targetOrTestSystem: FAAH (Rattus norvegicus, UniProt P97612)
Sequence (P97612 whole entry): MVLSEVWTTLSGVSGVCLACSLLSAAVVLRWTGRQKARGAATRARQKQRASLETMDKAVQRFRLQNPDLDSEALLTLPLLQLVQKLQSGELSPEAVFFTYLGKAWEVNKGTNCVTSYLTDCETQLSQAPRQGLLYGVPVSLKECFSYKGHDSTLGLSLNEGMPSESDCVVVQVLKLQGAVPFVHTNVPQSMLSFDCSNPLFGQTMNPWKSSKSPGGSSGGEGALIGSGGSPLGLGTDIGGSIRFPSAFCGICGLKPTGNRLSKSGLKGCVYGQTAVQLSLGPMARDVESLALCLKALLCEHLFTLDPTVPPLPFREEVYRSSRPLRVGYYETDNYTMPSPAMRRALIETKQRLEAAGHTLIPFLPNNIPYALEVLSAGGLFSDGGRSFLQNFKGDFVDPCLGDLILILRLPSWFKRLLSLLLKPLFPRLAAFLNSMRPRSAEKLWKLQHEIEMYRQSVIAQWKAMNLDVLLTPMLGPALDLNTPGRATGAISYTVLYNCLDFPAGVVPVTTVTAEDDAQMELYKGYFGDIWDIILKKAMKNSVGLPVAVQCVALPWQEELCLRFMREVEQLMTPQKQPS
assay: In vitro FAAH activity in rat brain homogenates/membranes
Assay type: biochemical
details: 100 nM; rat brain homogenates, 15 min pre-incubation; Table 2
property: FAAH activity, percent of control, 100 nM

Consider the following illustrative entries.
C[C@@H]1CCC[C@H](C)N1C(=O)n1nnc2ccccc21 [Compound 10 n] :: 71±7% of control
CC1(C)OCCN1C(=O)n1nnc2ccccc21 [Compound 10 o] :: 17±3% of control
Cl.O=C(N1CCN(Cc2ccccc2)CC1)n1nnc2ccccc21 [Compound 10 i] :: 0±0% of control
CN(C(=O)n1nnc2ccccc21)c1ccc(F)cc1F [Compound 10 b] :: 2±1% of control
O=C(Nc1cccnc1)N1CCC(Cc2cccc(Oc3ccc(C(F)(F)F)cn3)c2)CC1 [Compound 3, PF3845, reference compound] :: 7±4% of control
CC1(C)COCN1C(=O)n1nnc2ccccc21 [Compound 11 a] :: 2±1% of control

# per-item lookup of FAAH activity, percent of control, 100 nM; items listed below
1. COc1cc(OC)cc(N(C)C(=O)n2nnc3ccccc32)c1 [Compound 10 c]
2. O=C(N1CCC(Cc2ccccc2)CC1)n1nnc2ccccc21 [Compound 10 h]
3. CN(Cc1ccccc1)C(=O)n1nnc2ccccc21 [Compound 10 f]
4. O=C(NCc1ccccc1)n1nnc2ccccc21 [Compound 10 e]
5. O=C(N1CCN(c2ccccc2)CC1)n1nnc2ccccc21 [Compound 10 j]

# output
1. 76±0% of control
2. 0±0% of control
3. 0±0% of control
4. 2±1% of control
5. 0±0% of control

# per-item lookup of FAAH activity, percent of control, 100 nM; items listed below
1. CN(C(=O)n1nnc2ccccc21)c1ccccc1 [Compound 10 a]
2. O=C(N1CCCCCCC1)n1nnc2ccccc21 [Compound 10 m]
3. O=C(Nc1ccc(F)cc1F)n1nnc2ccccc21 [Compound 10 d]
4. CN(C(=O)n1nnc2ccccc21)C1CCCCC1 [Compound 10 k]

# output
1. 1±0% of control
2. 15±1% of control
3. 100±5% of control
4. 1±2% of control

---

targetOrTestSystem: FAAH (Rattus norvegicus)
assay: In vitro FAAH activity in rat brain homogenates/membranes
Type: biochemical
details: 10 nM; rat brain homogenates, 15 min pre-incubation; Table 2
property: FAAH activity, percent of control, 10 nM

Consider the following illustrative entries.
O=C(Nc1cccnc1)N1CCC(Cc2cccc(Oc3ccc(C(F)(F)F)cn3)c2)CC1 [Compound 3, PF3845, reference compound] :: 101±31% of control
CN(C(=O)n1nnc2ccccc21)c1ccc(F)cc1F :: 35±3% of control
CC1(C)OCCN1C(=O)n1nnc2ccccc21 :: 71±2% of control
O=C(N1CCCCCCC1)n1nnc2ccccc21 :: 62±6% of control
CN(C(=O)n1nnc2ccccc21)c1ccccc1 :: 42±12% of control

# per-item lookup of FAAH activity, percent of control, 10 nM; items listed below
1. CN(C(=O)n1nnc2ccccc21)C1CCCCC1
2. Cl.O=C(N1CCN(Cc2ccccc2)CC1)n1nnc2ccccc21
3. O=C(N1CCN(c2ccccc2)CC1)n1nnc2ccccc21

# output
1: 1±0% of control; 2: 0±0% of control; 3: 1±0% of control

# input Can you share its FAAH activity, percent of control, 10 nM? I mean this compound: `O=C(N1CCC(Cc2ccccc2)CC1)n1nnc2ccccc21`
# output 0±0% of control

---

targetOrTestSystem: FAAH (Rattus norvegicus, UniProt P97612)
assay: In vitro FAAH activity in rat brain homogenates/membranes
Type: biochemical
details: 10 nM; rat brain homogenates, 15 min pre-incubation; Table 2
Give FAAH activity, percent of control, 10 nM for every item shown.

CC1(C)COCN1C(=O)n1nnc2ccccc21 [Compound 11 a] :: 78±25% of control
CN(Cc1ccccc1)C(=O)n1nnc2ccccc21 [Compound 10 f] :: 0±0% of control

// moving on: another record for FAAH activity, percent of control, 10 nM
# input Can you share its FAAH activity, percent of control, 10 nM? I mean this molecule: O=C(NCc1ccccc1)n1nnc2ccccc21 [Compound 10 e]
# output 13±1% of control

---

Give Liver FAAH activity, percent of control for every item shown.
targetOrTestSystem: FAAH (Mus musculus)
Sequence (O08914 whole entry): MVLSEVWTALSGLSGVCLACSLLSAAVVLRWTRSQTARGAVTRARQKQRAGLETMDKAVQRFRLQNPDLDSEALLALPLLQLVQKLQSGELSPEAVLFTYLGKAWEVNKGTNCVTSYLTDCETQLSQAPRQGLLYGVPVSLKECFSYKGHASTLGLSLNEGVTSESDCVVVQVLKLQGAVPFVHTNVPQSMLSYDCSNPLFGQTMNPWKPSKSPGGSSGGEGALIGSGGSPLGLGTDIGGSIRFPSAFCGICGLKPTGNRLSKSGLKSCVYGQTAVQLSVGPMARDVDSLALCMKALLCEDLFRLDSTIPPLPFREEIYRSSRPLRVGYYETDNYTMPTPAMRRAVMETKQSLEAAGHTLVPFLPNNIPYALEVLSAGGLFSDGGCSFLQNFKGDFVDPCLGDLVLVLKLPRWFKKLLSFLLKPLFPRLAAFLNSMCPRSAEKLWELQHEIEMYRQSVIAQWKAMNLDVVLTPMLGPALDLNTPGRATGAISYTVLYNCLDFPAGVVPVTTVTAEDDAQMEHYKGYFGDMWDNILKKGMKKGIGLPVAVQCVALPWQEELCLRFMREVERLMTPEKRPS
assay: In vivo FAAH inhibition, liver, after oral administration to mice
details: 0.1 mg kg^−1 p.o. in mice, 8 h after administration; Table 4

Consider the following illustrative entries.
O=C(Nc1cccnc1)N1CCC(Cc2cccc(Oc3ccc(C(F)(F)F)cn3)c2)CC1 [Compound 3, PF3845, reference compound] :: 7±4% of control
CC1(C)COCN1C(=O)n1nnc2ccc(Br)cc21 :: 16±6% of control
CC1(C)COCN1C(=O)n1nnc2cccnc21 :: 14±7% of control
NC(=O)c1cccc(-c2cccc(OC(=O)NC3CCCCC3)c2)c1 [Compound 2, URB597, reference compound] :: 74±20% of control
CC1(C)COCN1C(=O)n1nnc2ccc(-c3ccccc3)cc21 :: 54±6% of control

# per-item lookup of Liver FAAH activity, percent of control; items listed below
1. CC1(C)COCN1C(=O)n1nnc2ccccc21
2. CC1(C)COCN1C(=O)n1nnc2cc(C(N)=O)ccc21

# output
10±4% of control
6±1% of control
